# Tested on: PyIESI-1 RRM domain (Plasmodium yoelii PY17X_0911200 aa 795-956, GST fusion)
# Test: RBNS R-value (6-mer enrichment in protein-bound RNA vs input library) (ratio); higher = stronger binding preference; the methods of the paper give 50 / 100 / 500 nM protein instead
# Reported conditions: protein concentration: 250 nM
In all, about 4,100 sequences were measured (“RBNS R-value (6-mer enrichment in protein-bound RNA vs input library)”: median about 0.96, highest 2% from about 2.4 on). Only a selection was taken, and the highest values are over-represented in it overall.
Tick T if RBNS R-value is 1 or greater. Tick F if RBNS R-value is less than 1.

Answered examples (3):
* UUGGUC | F
* GGAUUG | T
* UAUGAC | F

Q: Exam item: decide whether the reported RBNS R-value for UGAUUA is at least 1.
A: T

Q: Exam item: decide whether the reported RBNS R-value for GUACUA is at least 1.
A: F

Origin of the recorded values: the supplement of paper PMC13392028
